protein stability index: recorded values
B1: TRIM35 (parent)
chain: DKELLCCSCQADPRHQGHRVQPVK

Variants of: B1
Protocol text: protein stability index of a GFP-peptide fusion (GPS, HEK-293T) (PSI 1-6); higher = more stable;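 note: lentivirally expressed fusions sorted by FACS into six bins by GFP to DsRed ratio, PSI derived from sequencing read proportions per bin multiplied by bin number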
Test settings: c terminus: a fixed tail appended
// no unit, no text: just the number

sequence_variant=Q16S measured_metric="protein stability index" assay_value=3.72
sequence_variant=P22K measured_metric="protein stability index" assay_value=4.08
sequence_variant=L5P measured_metric="protein stability index" assay_value=4.36

Entry E3K — recorded protein stability index = 3.52
